Biological target: T1, 14-3-3β/α, full length, N-terminally His6-tagged (human, UniProt P31946 1-246)
T1 chain: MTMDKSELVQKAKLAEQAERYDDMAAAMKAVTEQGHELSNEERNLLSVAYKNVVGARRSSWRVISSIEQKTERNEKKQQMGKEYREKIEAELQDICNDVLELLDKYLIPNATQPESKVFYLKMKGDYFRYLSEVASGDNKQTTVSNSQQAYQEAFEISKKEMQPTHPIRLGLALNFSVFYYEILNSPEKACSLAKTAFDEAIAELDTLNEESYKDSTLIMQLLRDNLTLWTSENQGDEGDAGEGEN
Test: FP
Where no end group is shown, it is not given here. [ ]: non-standard residue; d: D form. pT = C[C@@H](OP(=O)(O)O)[C@H](N)C(=O)O
experimental.endpoint: Kd

Reference set, count: 2
TTNPASATT (also: one phosphorylated Ser/Thr within Ser61–Thr64) [peptide 14, monophosphorylated APN 9-mer (noncanonical site of peptide 10)]
> 167 µM
NPASA[pT]TLD [peptide 15, monophosphorylated APN 9-mer pThr63 (site 2)]
45 µM

Next:
The recorded Kd for entry PASATTLDQ (also: one phosphorylated Ser/Thr within Ser61–Thr64) [peptide 16, monophosphorylated APN 9-mer (noncanonical site of peptide 12)] equals > 333 µM
